Molecular target: T1, N2 peptide (non-muscle myosin neo-epitope N2 12mer sequence)
T1 construct: also called N2 12-mer peptide
T1 peptide: LMKNMDPLNDNV
Assay: SPR (BIACORE X100), antibody captured by anti-human Fc, N2 peptide in solution
METRIC NAME: pKd
API: returns pKd as number; meaning -log10 of concentration in mol/L.

The cases that follow already have their pKd on record.
H3-21G6 / L1-21G6, wild type human IgG1 (antibody, V domains shown, also called H3/L1) VH: QVQLVQSGAEVKKPGSSVKVSCKASGYTFTSYYMYWVRQAPGQGLEWIGGINPSNGGTNFNEKFKSKATITVDKSTSTAYMELSSLRSEDTAVYYCTRWGYDREWFAYWGQGTLVTVSS VL: DIVMTQSPATLSVSPGERATISCRSSKSLLHSNGNTYLYWFQQKPGQPPKVLIYRMSNLASGVPARFSGSGSGTDFTLTISSVEPEDFATYYCMQHLEYPFTFGGGTKLEIKR :: 5.10
Chimeric 21G6, human heavy chain constant region IgG4 (antibody, V domains shown, Human IgG4 constant region; also called CHIgG4 / Ch; ch21G6 IgG4) VH: QVQLQQPGAELVKPGASVKLSCKASGYTFTSYYMYWVKQRPGQGLEWIGGINPSNGGTNFNEKFKSKATLTVDKSSSTAYMQLSSLTSEDSAVYYCTRWGYDREWFAYWGQGTLVTVSA VL: DIVMTQAAPSVPVTPGESVSISCRSSKSLLHSNGNTYLYWFLQRPGQSPQVLIYRMSNLASGVPDRFSGSGSGTAFTLRISRVEAEDVGVYYCMQHLEYPFTFGSGTKLEIKR :: 5.39

Q: Kindly indicate its recorded pKd. Item: H2-21G6 / L3-21G6, human IgG1 N297Q (antibody, V domains shown, also called H2/L3 N297Q) VH: QVQLVQSGAEVKKPGASVKVSCKASGYTFTSYYMYWVRQAPGQGLEWIGGINPSNGGTNFNEKFKSKATMTVDKSTSTAYMELRSLRSDDSAVYYCTRWGYDREWFAYWGQGTLVTVSS VL: DIVMTQTPLSLSYTPGQPASISCRSSKSLLHSNGNTYLYWFLQKPGQSPQLLIYRMSNLASGVPDRFSGSGSGTDFTLKISRVEAEDVGVYYCMQHLEYPFTFGQGTKLEIKR
A: 5.06
